System: Escherichia coli TOP10
Experiment: shrunken log2 fold change of peptide-encoding DNA abundance (4.5 h post-induction vs induction); higher = less antimicrobial activity (less host growth inhibition)
Details: time post-induction: 4.5 h; library: site-saturation at positions 5, 18, 19, 20
shrunken log2 fold change values by entry

{"columns": ["seq", "test.target", "shrunken log2 fold change"],
 "data": [
  ["RRIRFRPPRLPRPRPRPRVLPRP", "Escherichia coli TOP10", 0.121],
  ["RRIRYRPPRLPRPRPRPAKPPRP", "Escherichia coli TOP10", -0.0319],
  ["RRIRPRPPRLPRPRPRPMWDPRP", "Escherichia coli TOP10", -0.0234],
  ["RRIRCRPPRLPRPRPRPACVPRP", "Escherichia coli TOP10", 0.211],
  ["RRIRGRPPRLPRPRPRPAGQPRP", "Escherichia coli TOP10", 0.727],
  ["RRIRDRPPRLPRPRPRPIMNPRP", "Escherichia coli TOP10", 0.0718],
  ["RRIRLRPPRLPRPRPRPWMLPRP", "Escherichia coli TOP10", -0.0153],
  ["RRIRGRPPRLPRPRPRPVTDPRP", "Escherichia coli TOP10", 0.394]
]}

###

Tested on: Escherichia coli TOP10
Assay: shrunken log2 fold change of peptide-encoding DNA abundance (4.5 h post-induction vs induction); higher = less antimicrobial activity (less host growth inhibition)
Settings: time post-induction: 4.5 h; library: site-saturation at positions 5, 18, 19, 20

{"columns": ["seq", "shrunken log2 fold change"],
 "data": [
  ["RRIRCRPPRLPRPRPRPVHYPRP", -0.0961],
  ["RRIRRRPPRLPRPRPRPGGHPRP", 0.499],
  ["RRIRIRPPRLPRPRPRPFRPPRP", 0.023],
  ["RRIRDRPPRLPRPRPRPKHVPRP", 0.139],
  ["RRIRNRPPRLPRPRPRPCYQPRP", -0.32],
  ["RRIRARPPRLPRPRPRPASIPRP", 0.0775],
  ["RRIRNRPPRLPRPRPRPQMVPRP", -0.00674],
  ["RRIRRRPPRLPRPRPRPHCVPRP", -0.0665],
  ["RRIRERPPRLPRPRPRPYGEPRP", -0.0274],
  ["RRIRYRPPRLPRPRPRPGFPPRP", "-6.24e-05"],
  ["RRIRRRPPRLPRPRPRPARDPRP", 0.185],
  ["RRIRNRPPRLPRPRPRPWRNPRP", 0.0352],
  ["RRIRWRPPRLPRPRPRPISEPRP", 0.00628],
  ["RRIRFRPPRLPRPRPRPTYVPRP", -0.137],
  ["RRIRERPPRLPRPRPRPKDLPRP", 0.167],
  ["RRIRLRPPRLPRPRPRPEGEPRP", 0.624],
  ["RRIRTRPPRLPRPRPRPWLPPRP", -0.164],
  ["RRIRKRPPRLPRPRPRPLTQPRP", 0.198],
  ["RRIRRRPPRLPRPRPRPEEPPRP", 0.24],
  ["RRIRWRPPRLPRPRPRPQKYPRP", -0.348],
  ["RRIRKRPPRLPRPRPRPTGIPRP", 0.0402],
  ["RRIRYRPPRLPRPRPRPTNFPRP", -0.16],
  ["RRIRYRPPRLPRPRPRPHMCPRP", -0.0704],
  ["RRIRFRPPRLPRPRPRPWAEPRP", 0.212]
]}

###

Tested on: Escherichia coli TOP10
Experiment: shrunken log2 fold change of peptide-encoding DNA abundance (4.5 h post-induction vs induction); higher = less antimicrobial activity (less host growth inhibition)
Conditions: time post-induction: 4.5 h; library: site-saturation at positions 5, 18, 19, 20
Known shrunken log2 fold change of a selection of sequences
quantity.measured: shrunken log2 fold change

{"columns": ["seq", "val"],
 "data": [
  ["RRIRQRPPRLPRPRPRPPHLPRP", 0.205],
  ["RRIRQRPPRLPRPRPRPCHLPRP", -0.0134],
  ["RRIRCRPPRLPRPRPRPFRCPRP", -0.0165],
  ["RRIRHRPPRLPRPRPRPGAGPRP", 0.395],
  ["RRIRARPPRLPRPRPRPSWFPRP", 0.156],
  ["RRIRVRPPRLPRPRPRPFAQPRP", 0.0825],
  ["RRIRQRPPRLPRPRPRPTPMPRP", 2.6],
  ["RRIRNRPPRLPRPRPRPVASPRP", -0.0843],
  ["RRIRARPPRLPRPRPRPVMLPRP", -0.19]
]}

###

Test system: Escherichia coli TOP10
Assay: shrunken log2 fold change of peptide-encoding DNA abundance (4.5 h post-induction vs induction); higher = less antimicrobial activity (less host growth inhibition)
Conditions: time post-induction: 4.5 h; library: site-saturation at positions 5, 18, 19, 20

{"columns": ["seq", "shrunken log2 fold change"],
 "data": [
  ["RRIRFRPPRLPRPRPRPECAPRP", 0.724],
  ["RRIRIRPPRLPRPRPRPQCHPRP", -0.594],
  ["RRIRDRPPRLPRPRPRPDLQPRP", 1.54],
  ["RRIRARPPRLPRPRPRPAGYPRP", 0.399],
  ["RRIRRRPPRLPRPRPRPDPFPRP", 0.1],
  ["RRIRSRPPRLPRPRPRPVDEPRP", -0.216],
  ["RRIRRRPPRLPRPRPRPREMPRP", 0.513],
  ["RRIRNRPPRLPRPRPRPDVTPRP", 0.216],
  ["RRIRKRPPRLPRPRPRPMSTPRP", 0.41]
]}

###

The entries below come with measured shrunken log2 fold change values attached.
System: Escherichia coli TOP10
Assay: shrunken log2 fold change of peptide-encoding DNA abundance (4.5 h post-induction vs induction); higher = less antimicrobial activity (less host growth inhibition)
Conditions: time post-induction: 4.5 h; library: site-saturation at positions 5, 18, 19, 20

{"columns": ["seq", "shrunken log2 fold change"],
 "data": [
  ["RRIRARPPRLPRPRPRPKHAPRP", 0.757],
  ["RRIRGRPPRLPRPRPRPKQQPRP", 0.228],
  ["RRIRHRPPRLPRPRPRPGSAPRP", 0.323],
  ["RRIRMRPPRLPRPRPRPTVYPRP", -0.0666],
  ["RRIRPRPPRLPRPRPRPSTEPRP", -0.0218]
]}

###

Test system: Escherichia coli TOP10
Assay: shrunken log2 fold change of peptide-encoding DNA abundance (4.5 h post-induction vs induction); higher = less antimicrobial activity (less host growth inhibition)
Conditions: time post-induction: 4.5 h; library: site-saturation at positions 5, 18, 19, 20
Category | rule: reported shrunken log2 fold change within range, see lo (below -0.003), med (-0.003 to below 0.08), hi (0.08 or more)

{"columns": ["seq", "assigned.category"],
 "data": [
  ["RRIRHRPPRLPRPRPRPNIWPRP", "med"],
  ["RRIRFRPPRLPRPRPRPMWRPRP", "lo"],
  ["RRIRDRPPRLPRPRPRPKDCPRP", "hi"],
  ["RRIRRRPPRLPRPRPRPGSNPRP", "med"],
  ["RRIRWRPPRLPRPRPRPDGLPRP", "hi"],
  ["RRIRQRPPRLPRPRPRPWTNPRP", "med"],
  ["RRIRCRPPRLPRPRPRPNGWPRP", "lo"],
  ["RRIRTRPPRLPRPRPRPDVAPRP", "lo"],
  ["RRIRLRPPRLPRPRPRPKAPPRP", "med"],
  ["RRIRWRPPRLPRPRPRPGQQPRP", "lo"],
  ["RRIRWRPPRLPRPRPRPSTVPRP", "lo"],
  ["RRIRARPPRLPRPRPRPPQLPRP", "hi"],
  ["RRIRGRPPRLPRPRPRPMAIPRP", "med"],
  ["RRIRWRPPRLPRPRPRPDMWPRP", "hi"],
  ["RRIRKRPPRLPRPRPRPIKYPRP", "med"],
  ["RRIRWRPPRLPRPRPRPMAFPRP", "lo"],
  ["RRIRHRPPRLPRPRPRPLATPRP", "lo"],
  ["RRIRLRPPRLPRPRPRPWNAPRP", "lo"],
  ["RRIRLRPPRLPRPRPRPSFEPRP", "med"],
  ["RRIRERPPRLPRPRPRPRNAPRP", "hi"],
  ["RRIRNRPPRLPRPRPRPGKRPRP", "med"],
  ["RRIRHRPPRLPRPRPRPGDRPRP", "hi"]
]}

###

Test system: Escherichia coli TOP10;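 note: peptides expressed intracellularly from a pBAD plasmid library in pooled LB shake-flask culture, induced with 0.3% L-arabinose, DNA abundance read by NGS, three biological replicates, DESeq2 with apeglm shrinkage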
Test: shrunken log2 fold change of peptide-encoding DNA abundance (4.5 h post-induction vs induction); higher = less antimicrobial activity (less host growth inhibition)
Settings: time post-induction: 4.5 h; library: site-saturation at positions 5, 18, 19, 20
We use 0.008 as the dividing line for shrunken log2 fold change: on or above the line is t, below is f.

{"columns": ["seq", "test.target", "assigned.category"],
 "data": [
  ["RRIRFRPPRLPRPRPRPVFCPRP", "Escherichia coli TOP10", "f"],
  ["RRIRQRPPRLPRPRPRPNFTPRP", "Escherichia coli TOP10", "f"],
  ["RRIRKRPPRLPRPRPRPIMFPRP", "Escherichia coli TOP10", "f"],
  ["RRIRGRPPRLPRPRPRPDTRPRP", "Escherichia coli TOP10", "t"],
  ["RRIRTRPPRLPRPRPRPRFCPRP", "Escherichia coli TOP10", "t"],
  ["RRIRPRPPRLPRPRPRPNEPPRP", "Escherichia coli TOP10", "t"],
  ["RRIRERPPRLPRPRPRPWTLPRP", "Escherichia coli TOP10", "f"],
  ["RRIRERPPRLPRPRPRPLPQPRP", "Escherichia coli TOP10", "f"],
  ["RRIRNRPPRLPRPRPRPSSGPRP", "Escherichia coli TOP10", "f"],
  ["RRIRSRPPRLPRPRPRPGATPRP", "Escherichia coli TOP10", "t"]
]}
